# Tested on: Candida albicans
# TEST_METHOD_NOTES: Potentiation of amphotericin-induced antifungal activity against Candida albicans ATCC 90029 assessed as fold reduction in amphotericin MIC at 32 ug/ml after 24 hrs by broth microdilution method relative to amphotericin MIC alone
# Format: functional
Non-standard residues stand in square brackets, D forms with d. Residues, ends and D or L forms follow the SMILES beside them. *: point of attachment. NMeY = CN[C@@H](Cc1ccc(O)cc1)C(=O)O; 2Abz = Nc1ccccc1C(=O)O; tBu = CC(C)(C)*
EXPERIMENTAL_READOUT: Ratio
Answer using only a numeral; do not append any unit.

Consider the following illustrative entries.
- CC(C)[C@H](NC(=O)[C@H](C)NC(=O)c1ccccc1N)C(=O)N(C)[C@@H](Cc1ccc(OC(C)(C)C)cc1)C(=O)O (H-[2Abz]AV[NMeY](tBu)-OH): 4
- CC(C)[C@H](NC(=O)[C@H](C)N)C(=O)N(C)[C@@H](Cc1ccc(OC(C)(C)C)cc1)C(=O)Nc1ccccc1C(=O)O (H-AV[NMeY](tBu)[2Abz]-OH): 16
- CN[C@@H](Cc1ccc(OC(C)(C)C)cc1)C(=O)Nc1ccccc1C(=O)O: 4

Bench note: what Ratio did CC(C)[C@H]1NC(=O)[C@H](C)NC(=O)c2ccccc2NC(=O)[C@H](Cc2ccc(O)cc2)N(C)C1=O show?
16

Each recorded value in this set is attributed to ChEMBL document CHEMBL4334492.
